Assayed Target: α2AAR (α2A-adrenergic receptor) (Homo sapiens)
Construct: expressed in transfected cells; host or cells: HEK293
Sequence (P08913 1-465): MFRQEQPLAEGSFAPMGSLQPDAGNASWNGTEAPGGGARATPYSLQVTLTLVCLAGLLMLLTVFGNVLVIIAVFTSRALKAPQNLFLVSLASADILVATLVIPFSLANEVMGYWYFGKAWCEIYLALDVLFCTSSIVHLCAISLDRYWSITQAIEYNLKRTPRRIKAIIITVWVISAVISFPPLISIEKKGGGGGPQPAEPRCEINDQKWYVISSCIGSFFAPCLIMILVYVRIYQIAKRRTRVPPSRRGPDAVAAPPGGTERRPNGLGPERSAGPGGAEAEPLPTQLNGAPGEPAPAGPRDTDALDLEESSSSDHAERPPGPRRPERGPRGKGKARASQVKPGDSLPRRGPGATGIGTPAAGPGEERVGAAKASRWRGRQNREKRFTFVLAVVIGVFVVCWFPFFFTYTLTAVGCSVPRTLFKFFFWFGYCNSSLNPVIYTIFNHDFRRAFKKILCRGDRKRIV
Assay: α2AAR FLIPR assay (agonist activity)
Type: cell-based
Test Parameters: FLIPR, α2AAR cell line hosted in HEK293 cells; read-out: α2A agonist activity (EC50)
pEC50: −log10 of the molar value.
Measured pEC50, listed per entry.
Assay Metric: pEC50

>>> df
                                   compound  assay_metric     obs_value
0  COc1cc(CC(c2c[nH]cn2)c2cccc(C)c2C)cc(OC)c1OC (stereo not drawn)         pEC50        > 8.00
1  CC(=O)Nc1ccc(CC(c2c[nH]cn2)c2cccc(C)c2C)cc1F (stereo not drawn)         pEC50  7.30 to 8.00
2  Cc1cccc(C(c2cccc(C(=O)NC3CCOCC3)c2)c2c[nH]cn2)c1C (racemic) [compound 121]         pEC50        > 8.00
3  CNC(=O)c1ccc(CC(c2c[nH]cn2)c2cccc(C)c2C)cc1 (stereo not drawn)         pEC50        > 8.00
4  Cc1cccc(C(c2cccc(NS(=O)(=O)CC3CCOCC3)c2)c2c[nH]cn2)c1C (stereo not drawn)         pEC50  7.30 to 8.00
5  Cc1cccc(C(Cc2ccc(NC(=O)CC3CCOCC3)cc2)c2c[nH]cn2)c1C (stereo not drawn)         pEC50        > 8.00
6  Cc1cccc(C(c2cccc(C(=O)NCCO)c2)c2c[nH]cn2)c1C (stereo not drawn)         pEC50  7.30 to 8.00
7  Cc1cccc(C(c2c[nH]cn2)c2cccc(-c3cnnn3C)c2F)c1C (stereo not drawn)         pEC50  7.30 to 8.00
8  Cc1cccc(C(c2c[nH]cn2)c2ccccc2C(N)=O)c1C (stereo not drawn)         pEC50        < 6.00

====

The reader will find reported Ki values listed item by item below.
Assayed Target: α2AAR (Homo sapiens)
Construct: host or cells: HEK293 (membranes)
Sequence (P08913 1-465): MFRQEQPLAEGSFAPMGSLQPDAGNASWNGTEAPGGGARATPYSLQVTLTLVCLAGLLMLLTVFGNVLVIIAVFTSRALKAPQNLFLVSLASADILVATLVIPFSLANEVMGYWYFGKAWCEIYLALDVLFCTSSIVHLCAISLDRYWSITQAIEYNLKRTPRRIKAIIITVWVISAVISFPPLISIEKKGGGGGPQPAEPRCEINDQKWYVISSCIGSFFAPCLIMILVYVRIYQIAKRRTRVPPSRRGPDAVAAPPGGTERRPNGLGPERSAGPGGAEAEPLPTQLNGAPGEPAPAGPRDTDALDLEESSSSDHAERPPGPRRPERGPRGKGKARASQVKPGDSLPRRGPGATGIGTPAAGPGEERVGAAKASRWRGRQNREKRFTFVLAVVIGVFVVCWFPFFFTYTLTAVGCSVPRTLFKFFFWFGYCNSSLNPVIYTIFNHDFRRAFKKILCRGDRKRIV
Assay: α2AAR binding assay ([3H]-RX 821002 radioligand)
Test Parameters: [3H]-RX 821002 0.5 nM, HEK293 membranes; read-out: α2A affinity (Ki)
Assay Metric: Ki

                                   molecule       obs_value
0  Cc1cccc(C(Cc2ccc(NC(=O)CC3CCOC3)cc2)c2c[nH]cn2)c1C (stereo not shown)         < 10 nM
1  Cc1cccc(C(Cc2ccc(C(C)C(=O)O)cc2)c2c[nH]cn2)c1C (stereo not shown) [compound 174]    50 to 250 nM
2  Cc1cccc(C(c2c[nH]cn2)c2cccc(C(=O)NCC3CCOCC3)c2F)c1C (single isomer, unassigned) [124-A]  250 to 1000 nM
3  Cc1cccc(C(c2cccc(S(=O)(=O)NC3CCOCC3)c2)c2c[nH]cn2)c1C (stereo not shown)         < 10 nM

====

Assayed Target: α2AAR (α2A-adrenergic receptor) (Homo sapiens)
Construct: expressed in transfected cells; host or cells: HEK293
Assay: α2AAR FLIPR assay (agonist activity)
Assay type: cell-based
Test Parameters: FLIPR, α2AAR cell line hosted in HEK293 cells; read-out: α2A agonist activity (EC50)
Assay Metric: EC50

In [3]: df
Out[3]:
                                   molecule                            assayed_target  assay_metric       obs_value
0  CONC(=O)c1cccc(C(c2c[nH]cn2)c2cccc(O)c2C)c1 (centres unmarked)  α2AAR (α2A-adrenergic receptor) (Homo sapiens)          EC50  250 to 1000 nM
1  Cc1cccc(C(Cc2ccc(NC(=O)CC3CCOC3)cc2)c2c[nH]cn2)c1C (centres unmarked)  α2AAR (α2A-adrenergic receptor) (Homo sapiens)          EC50         < 10 nM
2  CC(=O)N1CCC(CC(=O)Nc2cccc(C(c3c[nH]cn3)c3cccc(C)c3C)c2)CC1 (centres unmarked)  α2AAR (α2A-adrenergic receptor) (Homo sapiens)          EC50     10 to 50 nM
3  Cc1cccc(C(Cc2ccc(C(=O)NC3CCOCC3)c(O)c2)c2c[nH]cn2)c1C (centres unmarked)  α2AAR (α2A-adrenergic receptor) (Homo sapiens)          EC50     10 to 50 nM
4  Cc1cccc(C(c2cccc(NC(=O)CN3CCOCC3)c2)c2c[nH]cn2)c1C (centres unmarked)  α2AAR (α2A-adrenergic receptor) (Homo sapiens)          EC50     10 to 50 nM
5  Cc1cn(-c2ccc(CC(c3c[nH]cn3)c3cccc(C)c3C)cc2)nn1 (centres unmarked)  α2AAR (α2A-adrenergic receptor) (Homo sapiens)          EC50     10 to 50 nM
6  Cc1cccc(C(c2cccc(NC(=O)CC3CCCCC3)c2)c2c[nH]cn2)c1C (centres unmarked)  α2AAR (α2A-adrenergic receptor) (Homo sapiens)          EC50     10 to 50 nM
7  Cc1cccc(C(c2cccc(NC(=O)CC#N)c2)c2c[nH]cn2)c1C (single isomer, unassigned) [10-B]  α2AAR (α2A-adrenergic receptor) (Homo sapiens)          EC50     10 to 50 nM

====

Assayed Target: α2AAR (Homo sapiens)
Construct: host or cells: HEK293 (membranes)
Assay: α2AAR binding assay ([3H]-RX 821002 radioligand)
Test Parameters: [3H]-RX 821002 0.5 nM, HEK293 membranes; read-out: α2A affinity (Ki)
pKi: −log10 of the molar value.
Assay Metric: pKi

                                    compound  assay_metric     obs_value
 0  Cc1cccc(C(c2c[nH]cn2)c2cccc(NS(C)(=O)=O)c2F)c1C (centres unmarked)           pKi  7.30 to 8.00
 1  Cc1cccc(C(Cc2cccc(NS(=O)(=O)CC3CCOCC3)c2)c2c[nH]cn2)c1C (single isomer, unassigned) [112-B]           pKi        > 8.00
 2  Cc1cccc(C(c2cccc(C(=O)NCC3CCC(O)CC3)c2)c2c[nH]cn2)c1C (centres unmarked)           pKi  7.30 to 8.00
 3  CONC(=O)c1cccc(CC(NC2=NCCS2)c2cccc(Cl)c2Cl)c1 (centres unmarked)           pKi        > 8.00
 4  Cc1cccc(C(c2cccc(-c3cnnn3C3CCOCC3)c2)c2c[nH]cn2)c1C (centres unmarked)           pKi        > 8.00
 5  Cc1cccc(C(Cc2ccc(C(=O)O)c(O)c2)c2c[nH]cn2)c1C (centres unmarked)           pKi  6.60 to 7.30
 6  CONC(=O)c1cccc(C(c2c[nH]cn2)c2cccc(C)c2C)c1 (single isomer, unassigned) [1-B]           pKi  6.60 to 7.30
 7  Cc1cccc(C(c2cccc(NC(=O)CCCN3CCOCC3)c2)c2c[nH]cn2)c1C (centres unmarked)           pKi  7.30 to 8.00
 8  Cc1cccc(C(c2cccc(NC(=O)OC3CCOC3)c2)c2c[nH]cn2)c1C (centres unmarked)           pKi  7.30 to 8.00
 9  CS(=O)(=O)Nc1cccc(CC(Oc2c(Cl)cccc2Cl)C2=NCCN2)c1 (centres unmarked)           pKi  6.60 to 7.30
10  Cc1cccc(C(Cc2ccc(C(N)=O)c(F)c2)c2c[nH]cn2)c1C (single isomer, unassigned) [156-B]           pKi        > 8.00
11  Cc1cccc(C(c2cccc(C(=O)NCC3CCOCC3)c2)c2c[nH]cn2)c1C (single isomer, unassigned) [98-A]           pKi  6.00 to 6.60
12  Cc1cccc(C(Cc2ccc(C(C)C(=O)O)cc2)c2c[nH]cn2)c1C (single isomer, unassigned) [174-B]           pKi  7.30 to 8.00
13  Cc1cccc(C(Cc2ccc(C(C)c3nnn[nH]3)cc2)c2c[nH]cn2)c1C (centres unmarked)           pKi  7.30 to 8.00
14  Cc1cccc(C(Cc2ccc(C(=O)NS(=O)(=O)c3ccccc3)cc2)c2c[nH]cn2)c1C (centres unmarked)           pKi  6.60 to 7.30
15  CC(=O)Nc1cccc(C(c2c[nH]cn2)c2cccc(C)c2C)c1F (centres unmarked)           pKi  6.60 to 7.30
16  CCc1ccccc1C(c1cccc(NS(C)(=O)=O)c1)c1c[nH]cn1 (centres unmarked)           pKi  6.60 to 7.30
17  Cc1cccc(C(c2cccc(NC(=O)CCN3CCOCC3)c2)c2c[nH]cn2)c1C (centres unmarked)           pKi  7.30 to 8.00
18  Cc1cccc(C(NC2=NCCS2)c2cccc(NS(C)(=O)=O)c2)c1C (centres unmarked)           pKi  6.60 to 7.30
19  Cc1cccc(C(c2cccc(C#N)c2)c2c[nH]cn2)c1C (centres unmarked)           pKi  6.60 to 7.30

meta.source: patent US20240374573A1
